# Measurement Target: T1, HLA-A*24:02 (human, biotinylated heavy chain)
# T1 construct: Conditional HLA class I complex as for m1
# Protocol Text: UV peptide exchange; HLA class I ELISA
Property: exchange rate with Pos
Please state the number and follow it with the unit.

{"columns": ["Binder", "exchange rate with Pos"],
 "data": [
  ["NSKMALNSL (Synthetic 9-mer) [P35 9-mer NSKMALNSL (TMPRSS2-ERG fusion)]", "0.2%"]
]}

Per the record, NMVENGCYL (Synthetic 9-mer) [P59 9-mer NMVENGCYL (FOXA1 F254V)] has exchange rate with Pos of -0.5%

Per the record, FFKRAAEGF (Synthetic 9-mer) [P77 9-mer FFKRAAEGF (AR-V3)] has exchange rate with Pos of 1.7%
